Below is a list of entries, each paired with its recorded EC50 value.
Measured On: human CD96, native, on primary human T cells (human) (UniProt P40200)
Assay Notes: flow cytometry on primary human CD3+ T cells
Assay Metric: EC50 (pM)

1. 42Y073-86F08-8 (antibody, V domains shown) VH: QVQLVQSGAEVKKPGSSVKVSCKASGGTFWLYAISWVRQAPGQGLEWMGGIIPQLGTANYAQKFQGRVTITADESTSTAYMELSSLRSEDTAVYYCARGAGYYGDKDPMDVWGQGTTVTVSS VL: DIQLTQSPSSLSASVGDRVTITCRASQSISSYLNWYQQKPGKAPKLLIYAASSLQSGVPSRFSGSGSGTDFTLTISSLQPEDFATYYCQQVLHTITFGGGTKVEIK : 40
2. 42Y073-86F08-17 (antibody, V domains shown) VH: QVQLVQSGAEVKKPGSSVKVSCKASGGTFREYAISWVRQAPGQGLEWMGGIIPVFGTANYAQKFQGRVTITADESTSTAYMELSSLRSEDTAVYYCARGAGYYGDKDPMDVWGQGTTVTVSS VL: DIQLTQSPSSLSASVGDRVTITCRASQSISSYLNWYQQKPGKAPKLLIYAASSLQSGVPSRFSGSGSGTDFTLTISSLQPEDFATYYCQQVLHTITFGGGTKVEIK : 10
3. 42Y073-86F04-3 (antibody, V domains shown) VH: QVQLVQSGAEVKKPGSSVKVSCKASGGTFSYNAISWVRQAPGQGLEWMGGIIPIMGTARYAQKFQGRVTITADESTSTAYMELSSLRSEDTAVYYCARLLGESGMDVWGQGTTVTVSS VL: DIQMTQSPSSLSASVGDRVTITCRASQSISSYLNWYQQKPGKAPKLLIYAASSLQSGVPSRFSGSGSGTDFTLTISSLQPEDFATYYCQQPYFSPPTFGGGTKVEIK : 90
4. 42Y073-1A01-103 (antibody, V domains shown) VH: QVQLVQSGAEVKKPGASVKVSCKASGYTFTAYQMHWVRQAPGQGLEWMGIINPAGGWTSYAQKFQGRVTMTRDTSTSTVYMELSSLRSEDTAVYYCARETAYYTTKGNWFDPWGQGTLVTVSS VL: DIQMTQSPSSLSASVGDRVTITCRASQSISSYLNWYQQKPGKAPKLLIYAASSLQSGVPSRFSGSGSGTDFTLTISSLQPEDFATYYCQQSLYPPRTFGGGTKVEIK : 10
5. 42Y073-86F08-3 (antibody, V domains shown) VH: QVQLVQSGAEVKKPGSSVKVSCKASGGTFVNYAISWVRQAPGQGLEWMGGIIPALGTANYAQKFQGRVTITADESTSTAYMELSSLRSEDTAVYYCARGAGYYGDKDPMDVWGQGTTVTVSS VL: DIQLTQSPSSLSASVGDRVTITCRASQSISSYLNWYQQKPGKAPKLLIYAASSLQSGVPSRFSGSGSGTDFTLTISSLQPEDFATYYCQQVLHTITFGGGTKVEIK : 50
6. 42Y073-86F04-5 (antibody, V domains shown) VH: QVQLVQSGAEVKKPGSSVKVSCKASGGTFSSHAISWVRQAPGQGLEWMGGIIPIFGRGKYAQKFQGRVTITADESTSTAYMELSSLRSEDTAVYYCARLLGESGMDVWGQGTTVTVSS VL: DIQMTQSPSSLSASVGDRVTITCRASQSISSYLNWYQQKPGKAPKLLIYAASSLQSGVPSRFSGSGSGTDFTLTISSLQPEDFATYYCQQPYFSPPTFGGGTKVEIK : 50
7. 42Y073-1A01-100 (antibody, V domains shown) VH: QVQLVQSGAEVKKPGASVKVSCKASGYTFTTYRMHWVRQAPGQGLEWMGIINPSGGLTQYAQKFQGRVTMTRDTSTSTVYMELSSLRSEDTAVYYCARETAYYTTKGNWFDPWGQGTLVTVSS VL: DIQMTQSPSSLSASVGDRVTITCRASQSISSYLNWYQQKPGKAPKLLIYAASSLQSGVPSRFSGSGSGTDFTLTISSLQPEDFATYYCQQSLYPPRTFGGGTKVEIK : 10
8. 42Y073-86F08-47 (antibody, V domains shown) VH: QVQLVQSGAEVKKPGSSVKVSCKASGGTFSQYAIHWVRQAPGQGLEWMGVIIPIFGKANYAQKFQGRVTITADESTSTAYMELSSLRSEDTAVYYCARGAGYYGDKDPMDVWGQGTTVTVSS VL: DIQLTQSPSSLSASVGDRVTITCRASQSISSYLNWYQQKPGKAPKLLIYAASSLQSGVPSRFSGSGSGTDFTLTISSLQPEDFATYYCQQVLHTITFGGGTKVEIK : 30
9. 42Y073-1A01-85 (antibody, V domains shown) VH: QVQLVQSGAEVKKPGASVKVSCKASGYTFTSYPMHWVRQAPGQGLEWMGIINPSGGFTSYAQKFQGRVTMTRDTSTSTVYMELSSLRSEDTAVYYCARETAYYTTKGNWFDPWGQGTLVTVSA VL: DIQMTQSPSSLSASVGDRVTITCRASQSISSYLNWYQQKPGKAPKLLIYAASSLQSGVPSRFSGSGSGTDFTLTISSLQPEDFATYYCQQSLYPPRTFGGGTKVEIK : 320
10. 42Y073-86F08-22 (antibody, V domains shown) VH: QVQLVQSGAEVKKPGASVKVSCKASGYTFDSYAMHWVRQAPGQGLEWMGGIIPIFGTAWYAQKFQGRVTITADESTSTAYMELSSLRSEDTAVYYCARGAGYYGDKDPMDVWGQGTTVTVSS VL: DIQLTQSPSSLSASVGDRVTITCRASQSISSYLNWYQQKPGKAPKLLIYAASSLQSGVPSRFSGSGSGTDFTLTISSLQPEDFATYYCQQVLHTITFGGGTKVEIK : 180
11. 42Y073-86F04-6 (antibody, V domains shown) VH: QVQLVQSGAEVKKPGSSVKVSCKASGGTFSGHAISWVRQAPGQGLEWMGGIIPIFGRARYAQKFQGRVTITADESTSTAYMELSSLRSEDTAVYYCARLLGESGMDVWGQGTTVTVSS VL: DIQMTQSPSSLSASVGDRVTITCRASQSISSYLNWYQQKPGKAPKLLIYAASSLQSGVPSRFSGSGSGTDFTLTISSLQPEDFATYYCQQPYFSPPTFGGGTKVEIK : 10
